The reported numbers originate from ChEMBL document CHEMBL4689842.

# Test system: U2OS
# ASSAY_PROTOCOL: Multiplex assay against U2OS
# Type: toxicity, cell-based
# STUDY_CONDITIONS: human, 24 h, 1 µM, compound concentration 1 uM, replicate 1
Total Cell Count reference
OUTCOME_MEASURE: Total Cell Count

COMPOUND: CNc1oc(-c2cccc3ccccc23)nc1C#N
VAL: 119

COMPOUND: COc1ccc(NS(=O)(=O)c2sc3ccc(Cl)cc3c2C)cc1N1CCNCC1.Cl
VAL: 174

COMPOUND: CC(=O)c1cc(-c2cc(C(=O)NC3CC3)ccc2C)c2ncccn12
VAL: 111

COMPOUND: Cc1cc2c(cc1N1C(=O)c3cccc4c(CCCO)ccc(c34)C1=O)n(C)c(=O)n2C
VAL: 176

COMPOUND: COc1cc2c(NC3CCN(C(C)C)CC3)nc(N3CCC(F)(F)CC3)nc2cc1OCCCN1CCCC1
VAL: 157

COMPOUND: CC(C)Oc1ccc(C(=O)N[C@H](CNC(=O)CN(C)C)Cc2ccc(-c3cn4cccc([C@H](C)O)c4n3)cc2)cc1Cl [GSK-923295A]
VAL: 249

COMPOUND: CNC(=O)c1nn(C)c2c1C(C)(C)Cc1cnc(Nc3ccc(N4CCN(C)CC4)cc3)nc1-2 [MILCICLIB]
VAL: 186

COMPOUND: CC(C)(C)c1cnc(CSc2cnc(NC(=O)C3CCNCC3)s2)o1 [BMS-387032]
VAL: 200

COMPOUND: CNC(=O)c1cc(Oc2ccc(NC(=O)Nc3cc(C(C)(C)C)nn3-c3ccc4ncccc4c3)c(F)c2)ccn1 [REBASTINIB]
VAL: 218

* * *

# Tested on: Fibroblast
# ASSAY_PROTOCOL: Multiplex assay against human fibroblast
# Type: toxicity, cell-based
# STUDY_CONDITIONS: 12 h, 1 µM, compound concentration 1 uM, replicate 1
The label is condition met for Population Hoechst High Intensity Objects (%) below 20% and condition not met for Population Hoechst High Intensity Objects (%) equal to or exceeding 20%.

COMPOUND: CN(C)CCOc1ccc(-c2nc(-c3ccncc3)c(-c3ccc4c(c3)CC/C4=N\O)[nH]2)cc1
DISCRETE_LABEL: condition not met
--
COMPOUND: Cc1nc(Cc2cccc(C(F)(F)F)c2)sc1-c1ccc(C(N)=O)nc1 [TP-024n]
DISCRETE_LABEL: condition met
--
COMPOUND: CN(C)C/C=C/C(=O)Nc1cc2c(Nc3ccc(F)c(Cl)c3)ncnc2cc1O[C@H]1CCOC1.O=C(O)/C=C\C(=O)O.O=C(O)/C=C\C(=O)O [AFATINIB DIMALEATE]
DISCRETE_LABEL: condition met
--
COMPOUND: COc1cc2c(Nc3ccc(NC(=O)c4ccccc4)cc3)ncnc2cc1OCCCN1CCOCC1
DISCRETE_LABEL: condition not met
--
COMPOUND: CCOc1cc(N2CCC(O)CC2)ccc1Nc1ncc2c(n1)N(C1CCCC1)CCC(=O)N2C
DISCRETE_LABEL: condition met
--
COMPOUND: CCCn1c(=O)c2[nH]c(C34CC5CC(CC3C5)C4)nc2n(CCC)c1=O
DISCRETE_LABEL: condition met
--
COMPOUND: Nc1nc2c(c(N3CCNCC3)n1)CCC1=C2[C@@H]2CCCC[C@@H]2O1
DISCRETE_LABEL: condition met
--
COMPOUND: CCn1c(-c2nonc2N)nc2cnc(Oc3cccc(NC(=O)c4ccc(OCCN5CCOCC5)cc4)c3)cc21 [GSK-269962A]
DISCRETE_LABEL: condition met
